test system: U2OS; assay: mean cytoplasmic OPP incorporation (global translation) relative to DMSO (% of DMSO); higher = more protein synthesis; details: 10 µM; 24 h
Where a name gives a salt, the structure may show the parent alone. The full ranking holds about 3,100 compounds; the median of “mean cytoplasmic OPP incorporation (global translation) relative to DMSO” is about 100, and the lowest 2% start at about 56. What follows is part of a selection rich in the lowest values, with near analogues and random picks from the rest.
Below, each entry is listed alongside its reported mean cytoplasmic OPP incorporation.
No unit in the answer, only the number.

[ask] Provide the documented mean cytoplasmic OPP incorporation with U2OS as the system for C[C@@H]1CC[C@@]2(OC1)O[C@H]1C[C@H]3[C@@H]4CC=C5C[C@@H](O[C@@H]6O[C@H](CO)[C@@H](O[C@@H]7O[C@@H](C)[C@H](O)[C@@H](O)[C@H]7O)[C@H](O)[C@H]6O[C@@H]6O[C@@H](C)[C@H](O)[C@@H](O)[C@H]6O)CC[C@]5(C)[C@H]4CC[C@]3(C)[C@H]1[C@@H]2C [Dioscin (Collettiside III)]
[reply] 50.2

[ask] Lab note: need mean cytoplasmic OPP incorporation for NC(C(=O)O)c1nn[nH]n1 (racemic) [(RS)-(Tetrazol-5-yl)glycine] on U2OS, anyone have it?
[reply] 102

[ask] For the record O=C1/C(=C/c2ccccc2)C[C@@]2(O)[C@H]3Cc4ccc(O)c5c4[C@@]2(CCN3CC2CC2)[C@H]1O5 [BNTX maleate] , what value of mean cytoplasmic OPP incorporation is listed for U2OS?
[reply] 34.8

[ask] Item: O=C1CC[C@@]2(O)[C@H]3Cc4ccc(O)c5c4[C@@]2(CCN3CC2CC2)[C@H]1O5 [Naltrexone hydrochloride dihydrate] Test system: U2OS Read-out: mean cytoplasmic OPP incorporation Value: ?
[reply] 108

[ask] Param readout= mean cytoplasmic OPP incorporation; system= U2OS; entry= CC(=O)O[C@H]1CC[C@@]2(C)C(=CC[C@@H]3[C@@H]2CC[C@]2(C)C(=O)CC[C@@H]32)C1 [Dehydroisoandosterone 3-acetate] ; returns value.
[reply] 83.5

Now for another entry.
[ask] // map C[C@@H]1C[C@@H]([C@H](O)CC2CC(=O)NC(=O)C2)C(=O)[C@@H](C)C1 [Cycloheximide] to recorded mean cytoplasmic OPP incorporation (system: U2OS)
[reply] 52.1
